Tested on: P. noctiluca
Experiment Description: Tentacle Solution Assay (TSA): inhibition of chemically stimulated nematocyst discharge
Assay type: cell-based
Parameters: key: Neutral effect solution: nematocysts were not activated after the incubation in the first solution but were activated by the subsequent chemical stimulation with 5% acetic acid solution; Reductor effect solution: nematocysts were not activated after the incubation in the first solution, but some isolated nematocysts discharge was observed activated by the subsequent chemical stimulation with 5% acetic acid solution; Inhibitory effect solution: nematocysts were not activated after the incubation in the first solution or by the subsequent chemical stimulation with 5% acetic acid solution
Condition Info: tentacle pieces incubated 5 minutes in 3 ml solution, then 15 µl of 5% acetic acid
Metric: Inhibitory effect (TSA) using 5% acetic acid as chemical stimulator Effect

I am curious: what Inhibitory effect (TSA) using 5% acetic acid as chemical stimulator Effect value has been reported for CC(O)CCO (stereo not shown) [100% Butylene glycol, butylene glycol] ?
Reductor

Same for CC(O)CO (stereo not shown) [100% Propylene glycol, propylene glycol]
Reductor

// provenance: patent EP4311544A1
